I'd be grateful if you could share measured selectivity ratio for these entries.
- Assay name: Selectivity index, ratio of CC50 for cytotoxicity in human Huh7.5 cells assessed as reduction in cell viability incubated for 96 hrs by MTT assay to EC50 antiviral activity against HCV J6/JFH/JC1 infected in human Huh7.5 cells assessed as reduction in viral RNA levels incubated for 72 hrs by qRT-PCR analysis
- Format: toxicity, cell-based
- Measurement setup: read-out: Ratio CC50/EC50
Give bare numbers.

Batch request: selectivity ratio per item, same order as input.
1. CN(C)CCN(C)c1ccc(C#N)c(CN2CCN(c3ccc(Br)cc3)CC2)c1
2. CN(C)CCN(C)c1ccc(C#N)c(CN2CCN(c3ccc(Cl)cc3)CC2)c1

## Output
1. 503
2. 671

----------
- Assay name: Cytotoxicity in African green monkey Vero E6 cells assessed as reduction in cell viability
- Type: cell-based, Vero C1008
- Measurement setup: chlorocebus sabaeus
Endpoint label: CC50 (µM)
Answers are plain numbers, in µM.

## Input Report CC50 for CN(C)CCN(C)c1ccc(C#N)c(CN2CCN(c3ccc(Cl)cc3)CC2)c1
## Output 18.4

----------
- Assay name: Clearance in beagle dog at 15 mg/kg, po measured after 0.08 to 72 hrs post dose by LC-MS/MS analysis
- Type: ADME, organism-based, Canis lupus familiaris
- Measurement setup: in vivo
Endpoint label: CL/F (mL/min/kg)
Give bare numbers, in mL/min/kg.

## Input Provide only the value of recorded CL/F for CN(C)CCN(C)c1ccc(C#N)c(CN2CCN(c3ccc(Cl)cc3)CC2)c1
## Output 200

----------
- Assay name: Selectivity index, ratio of CC50 for cytotoxicity in human Huh7.5 cells assessed as reduction in cell viability incubated for 96 hrs by MTT assay to EC50 for antiviral activity against HCV J6/JFH/JC1 infected in human Huh7.5 cells incubated for 72 hrs by In-Cell Western assay
- Format: toxicity, cell-based
- Measurement setup: read-out: Ratio CC50/EC50
Endpoint label: selectivity ratio
Answers are plain numbers.

Worked examples, 4 compounds total:
[[record]]
sample_smiles = "CN(C)CCN(C)c1ccc(C#N)c(CN2CCC(c3ccc(Cl)cc3)CC2)c1"
endpoint_label = "selectivity ratio"
numeric_value = 26

[[record]]
sample_smiles = "CN(C)CCN(C)c1ccc(C#N)c(CN2CCN(c3ccc([N+](=O)[O-])cc3)CC2)c1"
endpoint_label = "selectivity ratio"
numeric_value = 40

[[record]]
sample_smiles = "CN(C)CCN(C)c1ccc(C#N)c(CN2CCN(c3ccncc3)CC2)c1"
endpoint_label = "selectivity ratio"
numeric_value = 16

[[record]]
sample_smiles = "CN(C)CCNc1ccc(C#N)c(CN2CCN(c3ccc(Cl)cc3)CC2)c1"
endpoint_label = "selectivity ratio"
numeric_value = 15


We next turn to a different compound, shown below.
## Input Recall and state the measured selectivity ratio for COc1ccc(N2CCN(Cc3cc(N(C)CCN(C)C)ccc3C#N)CC2)cc1 .
## Output 31

----------
- Assay name: AUC (0 to 72 hrs) in beagle dog at 15 mg/kg, po measured after 0.08 to 72 hrs post dose by LC-MS/MS analysis
- Assay type: ADME, organism-based, Canis lupus familiaris
- Set-up: time < 72 hr, dose 15 mg/kg, route oral
- Measurement setup: in vivo
Endpoint label: AUC(0-t) at 72 h (ng·h/mL)
Answers are plain numbers, in ng·h/mL.

## Input State its AUC(0-t) at 72 h for this molecule: CN(C)CCN(C)c1ccc(C#N)c(CN2CCN(c3ccc(Cl)cc3)CC2)c1
## Output 1280
